- TARGET: CDK9 (Homo sapiens)
- Construct: endogenous in cells; host or cells: MDA-MB-231
- PROCEDURE_TEXT: CDK protein degradation activity (Western blotting), CDK9
- Format: cell-based
- MEASUREMENT_SETUP: MDA-MB-231 cells, 0.1 μM, 16 hours, Western blot
- Experimental: In order to evaluate the CDK protein degradation activity of the compounds according to the present invention, the following experiment was conducted. MDA-MB-231 cells were seeded at 5×10^5 cells per well in a 6-well plate. The next day, the compounds were treated in each well to achieve final concentrations of 100 nM, 1 μM, and 10 μM. […] Cell lysates were quantified and separated by size using sodium dodecyl sulfate-polyacrylamide gel electrophoresis (SDS-PAGE). […]
Listed here are molecules together with their documented Enzyme degradation CDK9 (% remaining) @ 0.1 μM.

MOLECULE	MEASURED
O=C1CC[C@H](n2nnc3ccc(N4CCC(CCCN5CCN(c6ccc(Nc7ncnc8c7ncn8C7CC(NC(=O)Cc8ccccc8)C7)cc6)CC5)CC4)cc3c2=O)C(=O)N1 (stereo partly drawn) [Compound 351]	10/10/10%
O=C1CCC(n2nnc3ccc(N4CCC(CCN5CCN(c6ccc(Nc7ncnc8c7ncn8[C@H]7C[C@@H](NC(=O)c8c(Cl)cccc8Cl)C7)cc6)CC5)CC4)cc3c2=O)C(=O)N1 (stereo partly drawn) [Compound 407]	0/0/0%

Pending molecule:
Fill blank: measured Enzyme degradation CDK9 (% remaining) @ 0.1 μM of the molecule COc1ccc(C(=O)N2CCC(CCCN3CCN(c4ccc(Nc5ncnc6c5ncn6[C@H]5C[C@@H](NC(=O)Cc6ccccc6)C5)cc4)CC3)CC2)cc1N1CCC(=O)NC1=O [Compound 257] is ____.
80%

---

- TARGET: CDK9 (Homo sapiens, UniProt P50750)
- Construct: endogenous in cells; host or cells: MDA-MB-231
- Sequence (P50750 whole entry): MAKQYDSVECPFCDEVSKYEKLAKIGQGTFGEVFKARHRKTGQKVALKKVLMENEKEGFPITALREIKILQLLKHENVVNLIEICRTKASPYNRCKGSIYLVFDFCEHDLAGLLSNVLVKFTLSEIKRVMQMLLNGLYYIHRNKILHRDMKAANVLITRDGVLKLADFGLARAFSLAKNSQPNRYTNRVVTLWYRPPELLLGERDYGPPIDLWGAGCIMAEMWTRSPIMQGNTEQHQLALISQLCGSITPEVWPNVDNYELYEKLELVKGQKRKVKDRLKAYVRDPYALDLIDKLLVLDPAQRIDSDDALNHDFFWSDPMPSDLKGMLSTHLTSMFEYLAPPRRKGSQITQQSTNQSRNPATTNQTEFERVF
- PROCEDURE_TEXT: CDK protein degradation activity (Western blotting), CDK9
- Format: cell-based
- MEASUREMENT_SETUP: MDA-MB-231 cells, 0.1 μM, 16 hours, Western blot
PROPERTY: Enzyme degradation CDK9 (% remaining) @ 0.1 μM (%)

Answered cases to consult:
MOLECULE	TARGET	MEASURED
O=C1CCC(N2C(=O)c3ccc(N4CCC(C(=O)N5CCN(CC6CCN(c7ccc(Nc8ncnc9c8ncn9[C@H]8C[C@@H](NC(=O)c9c(Cl)cccc9Cl)C8)cc7)CC6)CC5)CC4)cc3C2=O)C(=O)N1 (some centres unmarked)	CDK9 (Homo sapiens, UniProt P50750)	10
O=C1CC[C@H](N2C(=O)c3cc(F)c(N4CCC(C(=O)N5CCC(CCN6CCN(c7ccc(Nc8ncnc9c8ncn9[C@H]8C[C@@H](NC(=O)Cc9ccccc9)C8)cc7)CC6)CC5)CC4)cc3C2=O)C(=O)N1	CDK9 (Homo sapiens, UniProt P50750)	20

A = O=C1CC[C@@H](c2ccc(OCC(=O)N3CCC(CCN4CCN(c5ccc(Nc6ncnc7c6ncn7C6CC(NC(=O)Cc7ccccc7)C6)cc5)CC4)CC3)cc2)C(=O)N1 (some centres unmarked)
B = Cc1cccc(C(=O)NC2CC(n3cnc4c(NC5CCN(CCC6CCN(C(=O)COc7cccc8c7C(=O)N([C@H]7CCC(=O)NC7=O)C8=O)CC6)CC5)ncnc43)C2)n1 (some centres unmarked)
Between A and B , whose recorded Enzyme degradation CDK9 (% remaining) @ 0.1 μM is greater? Your choice should be expressed through its label.
B

---

- TARGET: CDK2 (Homo sapiens)
- Construct: endogenous in cells; host or cells: MDA-MB-231
- PROCEDURE_TEXT: CDK protein degradation activity (Western blotting), CDK2
- Type: cell-based
- MEASUREMENT_SETUP: MDA-MB-231 cells, 10 μM, 16 hours, Western blot
PROPERTY: Enzyme degradation CDK2 (% remaining) @ 10 μM (%)

COMPOUND	MEASURED
O=C1CCC(N2C(=O)c3cccc(OCC(=O)N4CCC5(CC4)CC(N4CCN(c6ccc(Nc7ncnc8c7ncn8[C@H]7C[C@@H](NC(=O)Cc8ccccc8)C7)cc6)CC4)C5)c3C2=O)C(=O)N1 (stereo partly shown)	10
O=C1CCC(n2nnc3ccc(N4CC(N5CCN(c6ccc(Nc7ncnc8c7ncn8[C@H]7C[C@@H](NC(=O)Cc8ccccc8)C7)cc6)CC5)C4)cc3c2=O)C(=O)N1 (stereo partly shown)	0
O=C1CC[C@H](N2C(=O)c3ccc(OCC(=O)N4CCC5(CC4)CC(N4CCN(c6ccc(Nc7ncnc8c7ncn8[C@H]7C[C@@H](NC(=O)Cc8ccccc8)C7)cc6)CC4)C5)cc3C2=O)C(=O)N1	70

P = Cc1cccc(C(=O)N[C@H]2C[C@@H](n3cnc4c(NCc5cccc(OCCCN6CCN(C(=O)CNc7cccc8c7C(=O)N([C@H]7CCC(=O)NC7=O)C8=O)CC6)c5)ncnc43)C2)n1
Q = O=C1CCC(N2C(=O)c3ccc(N4CCC(C(=O)N5CCC(CN6CCC(CCNc7ncnc8c7ncn8[C@H]7C[C@@H](NC(=O)c8c(Cl)cccc8Cl)C7)CC6)CC5)CC4)cc3C2=O)C(=O)N1 (stereo partly shown)
R = Cc1cccc(C(=O)N[C@H]2C[C@@H](n3cnc4c(Nc5ccc(N6CCN(C7CC8(CCN(c9ccc%10nnn([C@H]%11CCC(=O)NC%11=O)c(=O)c%10c9)CC8)C7)CC6)cc5)ncnc43)C2)n1
S = N#Cc1cccc(C(=O)N[C@H]2C[C@@H](n3cnc4c(Nc5ccc(N6CCN(CC7CCN(C(=O)C8CCN(c9ccc%10c(c9)C(=O)N(C9CCC(=O)NC9=O)C%10=O)CC8)CC7)CC6)cc5)ncnc43)C2)n1 (stereo partly shown)
Your job: order these 4 records by Enzyme degradation CDK2 (% remaining) @ 10 μM, ascending. Return the labels ranked in the requested order, please.
R, S, Q, P
(R: 10%, S: 20%, Q: 40%, P: 60%)

---

- TARGET: CDK9 (Homo sapiens, UniProt P50750)
- Construct: endogenous in cells; host or cells: MDA-MB-231
- PROCEDURE_TEXT: CDK protein degradation activity (Western blotting), CDK9
- Assay type: cell-based
- MEASUREMENT_SETUP: MDA-MB-231 cells, 1 μM, 16 hours, Western blot
PROPERTY: Enzyme degradation CDK9 (% remaining) @ 1 μM (%)

COMPOUND	RESULT_UNIT	MEASURED
O=C1CC[C@@H](c2cccc(OCC(=O)N3CCC(CC(=O)N4CCN(c5ccc(Nc6ncnc7c6ncn7[C@H]6C[C@@H](NC(=O)Cc7ccccc7)C6)cc5)CC4)CC3)c2)C(=O)N1	%	70

A = Cc1cccc(C(=O)N[C@H]2C[C@H](n3cnc4c(NCC5CCN(C(=O)CCCCCNC(=O)CNc6ccc7c(c6)C(=O)N([C@@H]6CCC(=O)NC6=O)C7=O)CC5)ncnc43)C2)n1 (stereo in doubt)
B = O=C1CC[C@H](N2C(=O)c3ccc(N4CCN(CC5CCN(c6ccc(Nc7ncnc8c7ncn8[C@H]7C[C@@H](NC(=O)c8c(Cl)cccc8Cl)C7)cc6)CC5)CC4)cc3C2=O)C(=O)N1
C = Cc1cccc(C(=O)NC2CC(n3cnc4c(NCc5ccc(OCC6CCN(C(=O)COc7cccc8c7C(=O)N([C@H]7CCC(=O)NC7=O)C8=O)CC6)cc5)ncnc43)C2)n1 (stereo partly shown)
Please list these compounds in decreasing order of Enzyme degradation CDK9 (% remaining) @ 1 μM. Return the labels ranked in the requested order, please.
A, C, B

---

- TARGET: CDK2 (Homo sapiens, UniProt P24941)
- Construct: endogenous in cells; host or cells: MDA-MB-231
- PROCEDURE_TEXT: CDK protein degradation activity (Western blotting), CDK2
- Assay type: cell-based
- MEASUREMENT_SETUP: MDA-MB-231 cells, 10 μM, 16 hours, Western blot
PROPERTY: Enzyme degradation CDK2 (% remaining) @ 10 μM (%)

1 = O=C1CC[C@H](N2C(=O)c3ccc(N4CC(C(=O)N5CCC(CCCN6CCN(c7ccc(Nc8ncnc9c8ncn9C8CC(NC(=O)Cc9ccccc9)C8)cc7)CC6)CC5)C4)cc3C2=O)C(=O)N1 (some centres unmarked)
2 = O=C1CC[C@H](N2C(=O)c3cccc(N4CCC(CN5CCN(c6ccc(Nc7ncnc8c7ncn8C7CC(NC(=O)Cc8ccccc8)C7)cc6)CC5)CC4)c3C2=O)C(=O)N1 (some centres unmarked)
Would you kindly point out which of 1 and 2 has the smaller Enzyme degradation CDK2 (% remaining) @ 10 μM figure? Your choice should be expressed through its label.
2

---

- TARGET: CDK9 (Homo sapiens, UniProt P50750)
- Construct: endogenous in cells; host or cells: MDA-MB-231
- PROCEDURE_TEXT: CDK protein degradation activity (Western blotting), CDK9
- Type: cell-based
- MEASUREMENT_SETUP: MDA-MB-231 cells, 10 μM, 16 hours, Western blot
- Description: In order to evaluate the CDK protein degradation activity of the compounds according to the present invention, the following experiment was conducted. MDA-MB-231 cells were seeded at 5×10^5 cells per well in a 6-well plate. The next day, the compounds were treated in each well to achieve final concentrations of 100 nM, 1 μM, and 10 μM. […] Cell lysates were quantified and separated by size using sodium dodecyl sulfate-polyacrylamide gel electrophoresis (SDS-PAGE). […]
PROPERTY: Enzyme degradation CDK9 (% remaining) @ 10 μM (%)

COMPOUND	MEASURED
Cc1cccc(C(=O)N[C@H]2C[C@@H](n3cnc4c(NCc5ccc(OCCCN6CCN(C(=O)COc7ccc8c(c7)C(=O)N([C@H]7CCC(=O)NC7=O)C8=O)CC6)cc5)ncnc43)C2)n1	0

A = O=C1CC[C@@H](c2ccc(OCC(=O)N3CC(N4CCC5(CC4)CC(N4CCN(c6ccc(Nc7ncnc8c7ncn8[C@H]7C[C@@H](NC(=O)Cc8ccccc8)C7)cc6)CC4)C5)C3)cc2)C(=O)N1
B = Cc1cccc(C(=O)N[C@H]2C[C@@H](n3cnc4c(NCc5ccc(OCCCN6CCN(C(=O)COc7cccc8c7C(=O)N([C@H]7CCC(=O)NC7=O)C8=O)CC6)cc5)ncnc43)C2)n1
Between A and B , whose recorded Enzyme degradation CDK9 (% remaining) @ 10 μM is greater? Your choice should be expressed through its label.
A
(A: 10%, B: 0%)

P = O=C1CC[C@H](N2C(=O)c3ccc(N4CCC(CN5CCN(c6ccc(Nc7ncnc8c7ncn8[C@H]7C[C@@H](NC(=O)c8cccc(F)n8)C7)cc6)CC5)CC4)cc3C2=O)C(=O)N1
Q = O=C1CC[C@H](N2C(=O)c3ccc(N4CCN(CC=CCN5CCC6(CC5)CC(N5CCN(c7ccc(Nc8ncnc9c8ncn9C8CC(NC(=O)Cc9ccccc9)C8)cc7)CC5)C6)CC4)cc3C2=O)C(=O)N1 (stereo partly shown)
Would you kindly point out which of P and Q has the smaller Enzyme degradation CDK9 (% remaining) @ 10 μM figure? Your choice should be expressed through its label.
P
